- assay_system: human B1R receptor (hB1R) (Homo sapiens)
- Construct: host or cells: CHO K1 cells
- Sequence (P46663 1-353): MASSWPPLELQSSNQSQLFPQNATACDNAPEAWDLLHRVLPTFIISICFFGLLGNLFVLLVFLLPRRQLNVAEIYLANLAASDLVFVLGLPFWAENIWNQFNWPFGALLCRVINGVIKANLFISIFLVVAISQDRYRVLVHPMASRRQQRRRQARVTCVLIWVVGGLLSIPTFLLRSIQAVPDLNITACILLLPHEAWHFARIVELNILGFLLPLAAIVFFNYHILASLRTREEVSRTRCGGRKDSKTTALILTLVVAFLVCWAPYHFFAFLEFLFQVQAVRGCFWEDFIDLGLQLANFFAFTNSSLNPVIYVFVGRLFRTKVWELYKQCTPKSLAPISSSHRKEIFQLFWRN
- experimental_details: FLIPR Ca2+ assay on hB1R-transfected CHO K1 cells, antagonistic action
- Assay type: cell-based
- test_settings: CHO-K1, 10 μM test substance; agonist Lys-Des-Arg9-bradykinin 0.5 nM; % of maximum achievable inhibition; read-out: hB1R [10 μM] % inhibition
measurement_kind: inhibition at 10 µM
Give the number first and the unit second.

{"compound": "COc1cc(C)c(S(=O)(=O)N(C)CCOCC(=O)NC2CCC(c3ccccc3)(N3CCOCC3)CC2)c(C)c1 (centres unmarked)", "inhibition at 10 µM": "100%"}
{"compound": "COc1cc(C)c(S(=O)(=O)N(C)CCOCC(=O)NC2CCC(Cc3ccccc3)(N3CCCCCC3)CC2)c(C)c1 (centres unmarked)", "inhibition at 10 µM": "91%"}
{"compound": "CN(C)C1(Cc2ccccc2)CCN(C(=O)COCC2CCc3ccccc3N2S(=O)(=O)c2ccc(Cl)c(Cl)c2)CC1 (centres unmarked)", "inhibition at 10 µM": "101%"}
{"compound": "COc1cc(C)c(S(=O)(=O)N(C)CCOCC(=O)NC2CCC(CCc3ccccc3)(N(C)C)CC2)c(C)c1 (centres unmarked)", "inhibition at 10 µM": "103%"}

So what's the measured inhibition at 10 µM for this one? CN(C)C1(c2ccccc2)CCN(C(=O)COCC2CCc3ccccc3N2S(=O)(=O)c2ccc(Cl)c(Cl)c2)CC1 (centres unmarked)
80%

So what's the measured inhibition at 10 µM for this one? COc1cc(C)c(S(=O)(=O)N(C)CCOCC(=O)N(C)CCC2CCC(CCc3ccccc3)(N3CCCC3)CC2)c(C)c1 (centres unmarked)
103%

So what's the measured inhibition at 10 µM for this one? COc1cc(C)c(S(=O)(=O)N2CCCCC2COCC(=O)N2CCC(Cc3ccccc3)(N(C)C)CC2)c(C)c1 (centres unmarked)
104%

So what's the measured inhibition at 10 µM for this one? CN(CCC1CCC(CCc2ccccc2)(N(C)C)CC1)C(=O)CC1CCCCN1S(=O)(=O)c1cccc(C(F)(F)F)c1 (centres unmarked)
98%

So what's the measured inhibition at 10 µM for this one? CN(CC1CCC(c2ccccc2)(N2CCCC2)CC1)C(=O)CC(NS(=O)(=O)c1ccc2ccccc2c1)c1ccccc1 (centres unmarked)
101%

So what's the measured inhibition at 10 µM for this one? CN1CCN(C2(CCc3ccccc3)CCN(C(=O)COCC3CCc4ccccc4N3S(=O)(=O)c3ccc(Cl)c(Cl)c3)CC2)CC1 (centres unmarked)
57%

So what's the measured inhibition at 10 µM for this one? COc1cc(C)c(S(=O)(=O)N2CCCCC2COCC(=O)N(C)CC2CCC(CCc3ccccc3)(N3CCN(C)CC3)CC2)c(C)c1 (centres unmarked)
103%

So what's the measured inhibition at 10 µM for this one? Cc1cc(S(=O)(=O)N2CCCCC2CCC(=O)N2CCC(Cc3ccccc3)(N3CCN(C)CC3)CC2)c(C)cc1Cl (centres unmarked)
102%

So what's the measured inhibition at 10 µM for this one? CN1CCN(C2(c3cccc(F)c3)CCN(C(=O)CC(NS(=O)(=O)c3ccc4ccccc4c3)c3ccccc3)CC2)CC1 (centres unmarked)
97%

So what's the measured inhibition at 10 µM for this one? COc1cc(C)c(S(=O)(=O)N(C)CCOCC(=O)NCC2CCC(Cc3ccccc3)(N3CCOCC3)CC2)c(C)c1 (centres unmarked)
95%

// provenance: patent US20090253669A1
